System: IGROV1 ovarian
method.summary: NCI-60 one-dose screen, 48 h
conditions: 10 µM unless noted
This is part of a sample that, as a whole, favours compounds with a hit. Of some 83,000 tested, about 20% had one in any assay. Activity calls are given as the source filed them. How the source made its calls: active means growth percent below 10; inactive means the rest.
Assign a class; possible classes are 1 = active, 0 = inactive

Use these answered entries as a reference point.
COc1cc(OC)cc(-c2cc(-c3c[nH]c4ccccc34)nc(-c3c[nH]c4ccccc34)c2C#N)c1	0
O=S(=O)(Oc1ccc(-c2cn3ccoc3n2)cc1)c1cccc(C(F)(F)F)c1	0
O=C(/C=C/C=C/c1csc(Br)n1)NO	0
CC(=O)Nc1cc(N2CCOCC2)c2nc(NC(=O)c3[nH]c(C)c(Cl)c3Cl)sc2c1	0

Next up:
Dear colleague, could you share the recorded outcome for CC(=O)Nc1nc(C)c(-c2csc(Nc3ccccc3)n2)s1 when you have a moment?
1

###

System: NCI-H23 lung
method.summary: NCI-60 one-dose screen, 48 h
conditions: 10 µM unless noted
Experimental: Growth inhibition of the NCI-H23 human Non-Small Cell Lung tumor cell line is measured as a screen for anti-cancer activity. Cells are grown in 96 well plates and exposed to the test compound for 48 hours. Compounds are tested at a single concentration, which is 10^-5 M for most compounds. The reported endpoint is percent growth (GI% or GIPRCNT), where numbers from 0 - 100% represent growth inhibition, and numbers from -100% - 0 represent cell death. […]
This is part of a sample that, as a whole, favours compounds with a hit. Of some 83,000 tested, about 20% had one in any assay. Activity calls are given as the source filed them. Rule for the calls: active = growth percent below 10; inactive = the rest.
Assign a class; possible classes are active, inactive

O=C(CSc1nnc(-c2ccc(Cl)cc2)n1-c1ccccc1)Nc1ccccc1Cl	inactive
Cc1ccc2c(n1)C(=O)C(Cl)=C(Nc1ccc(C(=O)OC(C)(C)C)cc1)C2=O	inactive
COCCOc1ccc2ncc(C#Cc3cncc(C(=O)Nc4ccc(CN5CCN(C)CC5)c(C(F)(F)F)c4)c3)n2n1	active
COc1cc(/C=N\NC(=O)c2ccc3nc(-c4ccc(Br)cc4)[nH]c3c2)cc(OC)c1OC	inactive
Cc1[nH]c(C(=O)Nc2ccccc2OCc2cccc(C(=O)NC3CCNC3)c2)c(Cl)c1Cl (stereo not drawn)	active
C#C[C@]1(O)CC[C@H]2[C@@H]3CC=C4c5sc(NCc6ccccc6)nc5CC[C@]4(C)[C@H]3CC[C@@]21C	inactive

Dear colleague, could you share the recorded outcome for COc1cc(/C=C2/C(=O)Nc3ccc(Cl)cc32)ccc1OCc1ccc(Cl)cc1 when you have a moment?
inactive

Dear colleague, could you share the recorded outcome for CCOC(=O)C1=C(C)NC(C)=C(C(=O)OCc2ccccc2)C1c1cccc(C#N)c1 (stereo not drawn) when you have a moment?
inactive

Dear colleague, could you share the recorded outcome for CC1CCN(CC(=O)Nn2c(COc3ccccc3)nc3ccccc3c2=O)CC1 when you have a moment?
inactive

Dear colleague, could you share the recorded outcome for CCN(CC)c1ccc(/C=N/NC(=O)c2ccc(S(N)(=O)=O)cc2)cc1 when you have a moment?
inactive

###

Items are presented alongside their recorded growth.
Tested on: A498 renal
method.summary: NCI-60 one-dose screen, 48 h (100 = growth as untreated, 0 = no growth, -100 = all killed)
conditions: 10 µM unless noted
Compounds without any hit were thinned out: in the full panel of roughly 83,000, 20% have a hit.
Form entry: value (%) — number only.

Below, 3 compounds whose answers are already recorded.
CN1CCN(c2ccc(Nc3nc(NCCNS(=O)(=O)c4ccccc4)c4sccc4n3)cc2)CC1	101
COC(=O)[C@@H](Cc1c[nH]c2ccccc12)NC(=O)CCCCOc1cc(O)c2c(=O)cc(-c3ccccc3)oc2c1	70
CC(C)NC(=O)c1cc(-c2ccc(NC(=O)Nc3ccc(F)c(C(F)(F)F)c3)cc2)nc2cccnc12	89.7

Note to self: growth of Brc1cccc(-c2cc(-c3cnc4c(c3)OCCO4)n[nH]2)c1 with A498 renal was 50.6

Note to self: growth of CC1CCN(CC(=O)Nn2c(COc3ccccc3)nc3ccccc3c2=O)CC1 with A498 renal was 81.8

Note to self: growth of CCCCCCNC(=O)Oc1ccc(/C(=C(/C)c2ccc(Cl)cc2)c2ccc(OCCN3CCCCCC3)cc2)cc1 with A498 renal was 74.5

Note to self: growth of CC1(C)CC[C@]2(C(=O)NCCCCCCN(CCCN)CCCN)CC[C@]3(C)C(=CC[C@@H]4[C@@]5(C)CC[C@H](O)C(C)(C)[C@@H]5CC[C@]43C)[C@@H]2C1 with A498 renal was 117

Note to self: growth of O=C(N/N=C\c1ccc(F)cc1)c1ccc2nc(-c3ccc(Br)cc3)[nH]c2c1 with A498 renal was 80.8

###

System: CCRF-CEM leukemia
method.summary: NCI-60 one-dose screen, 48 h (100 = growth as untreated, 0 = no growth, -100 = all killed)
conditions: 10 µM unless noted
About 83,000 compounds went through this panel and 20% of them were active in at least one assay; those are over-represented in the sample as a whole. Activity calls are given as the source filed them. Rule for the calls: active = growth percent below 10; inactive = the rest.
Items are presented alongside their recorded growth.

CCCc1cc2cc(-n3nc(CC)c4c3CC(C)(C)CC4=O)cc(NC3CCC(O)CC3)c2c(=O)[nH]1 (stereo not drawn)	21.8% (inactive)

# growth of CCCC[n+]1ccc(SCC(=O)n2ccc3ccccc32)c2ccccc21 = 87.3% (inactive)

# growth of COC(=O)[C@@H](Cc1c[nH]c2ccccc12)NC(=O)CCCCOc1cc(O)c2c(=O)cc(-c3ccccc3)oc2c1 = 83.1% (inactive)

# growth of CCOC(=O)Nc1ccc2c(ccn2C(=O)c2cccc(F)c2)c1 = 16.7% (inactive)

# growth of FC(F)(F)c1cc(Br)cc(-c2cc(-c3ccc4c(c3)OCCO4)[nH]n2)c1 = 14.9% (inactive)

# growth of CC(C)(C)OC(=O)Nc1ccc(-c2cccc(Oc3ccc4nnc(Cl)n4n3)c2)cc1 = 60.4% (inactive)

# growth of CC[C@]12C=CCN3CC[C@]4(C(=C(C(=O)OC)C1)Nc1cc5c(cc14)[C@@H]1[C@H](O5)[C@@H](O)[C@@]4(CC)CC(C(=O)OC)=C5Nc6cc(O)ccc6[C@@]56CCN1C46)C32 (stereo partly drawn) = 6.81% (active)

# growth of CCOC(=O)C1=C(C)NC(C)=C(C(=O)OCc2ccccc2)C1c1cccc(C#N)c1 (stereo not drawn) = 25.5% (inactive)

###

System: OVCAR-5 ovarian
method.summary: NCI-60 one-dose screen, 48 h
conditions: 10 µM unless noted
The panel holds about 83,000 compounds, 20% with a hit somewhere; the sample as a whole holds those more often. Activity calls are given as the source filed them. The calls were made as follows: active = growth percent below 10; inactive = the rest.
Assign a class; possible classes are Yes (active), No (inactive)

Use these answered entries as a reference point.
CC(C)[C@H]1c2[nH]c3ccccc3c2C[C@H]2C(=O)N(CCCCCCC(=O)NO)CC(=O)N12	No
C#C[C@]1(O)CC[C@H]2[C@@H]3CC=C4c5sc(N6CCN(C)CC6)nc5CC[C@]4(C)[C@H]3CC[C@@]21C	No
CS(=O)(=O)c1nccc(-c2c(-c3cccc(OCc4ccc(Cl)c(C(F)(F)F)c4)c3)nc3sccn23)n1	No
O=C(/C=C/c1cccc(Br)c1)c1cccc(OCCCCOc2cccc(C(=O)/C=C/c3cccc(Br)c3)c2)c1	No
COC(=O)c1cccc(NC2=C(Cl)C(=O)C(C)=C(C)C2=O)c1	No
Cc1ccc2c(n1)C(=O)C(Cl)=C(Nc1cccc(C(=O)OC(C)(C)C)c1)C2=O	No
CSc1ccc(C(=NNS(=O)(=O)c2ccc(C)cc2)c2ccc(Cl)cc2)cc1	No
Cc1cc(NS(=O)(=O)c2ccc(NC(=O)CSc3nc4ccccc4c(=O)n3-c3ccccc3)cc2)no1	No

Next up:
Dear colleague, could you share the recorded outcome for CN(C)c1ccc(/C=N/Nc2nc(N/N=C/c3ccc(N(C)C)cc3)nc(N3CCCCC3)n2)cc1 when you have a moment?
No

###

System: SF-268 CNS
method.summary: NCI-60 one-dose screen, 48 h
conditions: 10 µM unless noted
About 83,000 compounds went through this panel and 20% of them were active in at least one assay; those are over-represented in the sample as a whole. The source made the active and inactive calls. The calls were made as follows: active = growth percent below 10; inactive = the rest.
Assign a class; possible classes are t for active, f for inactive

Use these answered entries as a reference point.
NC1CC2(CCN(c3cnc(C(=O)Nc4cc(F)cc5cccnc45)cn3)CC2)C1	f
COc1ccc(/C(=N\NC(N)=S)c2ccc(Cl)cc2)cc1OC	f
CCCCCCCCCCCC(=O)NC(C)(C)C(=O)N1CCCC1C(=O)NC(C)(C)C(=O)NC(C)(C)C(=O)N1CCCC1C(=O)NC(C)(C)C(=O)NC(C)(C)C(=O)N1CCCC1C(=O)NC(C)C(=O)NCCC(=O)NC(C)C(=O)NC(C)(C)C(=O)NC(C)(C)C(=O)NC(C)(C)C(=O)NCCC(=O)NC(C)(C)C(=O)NC(C)(C)C(=O)NC(C)(C)C(=O)NC(C)C(=O)NCCC(=O)O (configuration not stated)	t
CCN1CCN(c2ccc(NC(=O)Nc3ccc4c(ccn4-c4ccnc(C(=O)NC)c4)c3)cc2C(F)(F)F)CC1	f
CN1CCC[C@]2(C)[C@H]3CC[C@@H]4[C@@H]5[C@H]6OC[C@@]5(CCC6(C)C)CC[C@@]4(C)[C@]3(C)CC[C@H]2C1(C)C	f
NS(=O)(=O)c1nnc(/N=C/c2c(O)[nH]c3ccccc23)s1	f

Dear colleague, could you share the recorded outcome for O=C1[C@@H]2Cc3c([nH]c4ccccc34)[C@H](c3ccc(Cl)cc3)N2C(=O)CN1C1CCN(Cc2ccccc2)CC1 when you have a moment?
f
